- Method description: qHTS assay for identifying genotoxic compounds that show differential cytotoxicity against isogenic chicken DT40 cell lines with known DNA damage response pathways - Rad54/Ku70 mutant cell line (AID 743015); further: nearly all actives have a fitted effect of over 60% in size
- Condition set: DT40 Rad54/Ku70 mutant viability, CellTiter-Glo, 40 h; series mostly up to 66.8 µM
Records with an inconclusive call do not appear. The source made the active and inactive calls. The call rests on the fitted dose curve; in most records, active means well fitted cell-killing curve with a large enough effect in the repeat runs; inconclusive means weak or mixed curves; inactive means no such curve, though single readings can be large or run the other way.
Labels: active, inactive

INSERT INTO assay_data (compound, category) VALUES
  ('O=S(=O)(c1ccc(Cl)cc1)c1ccc(Cl)cc1', 'active'),
  ('CSCCCN=C=S', 'active'),
  ('CC(=O)Nc1ccc2c(c1)Cc1ccccc1-2', 'active'),
  ('O=C(CCl)Nc1ccccc1', 'active'),
  ('ClC1=C(Cl)[C@]2(Cl)[C@@H]3[C@@H]4C[C@@H]([C@H]5O[C@@H]45)[C@@H]3[C@@]1(Cl)C2(Cl)Cl', 'active'),
  ('Clc1ccc(CO/N=C(\Cn2ccnc2)c2ccc(Cl)cc2Cl)c(Cl)c1', 'active'),
  ('Clc1ccc(C(c2ccccc2Cl)C(Cl)(Cl)Cl)cc1 (stereo unspecified)', 'active'),
  ('Oc1ccc(C2(c3ccc(O)cc3)CCCCC2)cc1', 'active'),
  ('O=[N+]([O-])c1cc([N+](=O)[O-])c2ccccc2c1', 'active'),
  ('CN(C)S(=O)(=O)N(SC(F)(Cl)Cl)c1ccccc1', 'active'),
  ('CCCCCCCCCBr', 'inactive'),
  ('CC1(C)C(/C=C(\Cl)C(F)(F)F)C1C(=O)OC(C#N)c1cccc(Oc2ccccc2)c1 (stereo unspecified)', 'inactive'),
  ('CCCSP(=O)(OCC)SCCC', 'active'),
  ('Nc1ccc(Sc2ccc(N)cc2)cc1', 'active'),
  ('CCOCn1c(-c2ccc(Cl)cc2)c(C#N)c(Br)c1C(F)(F)F', 'active'),
  ('COc1cccc(C(=O)CCN[C@@H](C)[C@H](O)c2ccccc2)c1', 'active'),
  ('CC(C)OS(C)(=O)=O', 'inactive'),
  ('O=c1ssc(Cl)c1Cl', 'active'),
  ('CC1(C)CN=C(NN=C(/C=C/c2ccc(C(F)(F)F)cc2)/C=C/c2ccc(C(F)(F)F)cc2)NC1', 'active'),
  ('CC(=O)[O-].CC(=O)[O-].[Hg+2]', 'active'),
  ('C1CCC2CCCCC2C1 (stereo unspecified)', 'inactive'),
  ('Cn1cc(C2=C(c3cn(C4CCN(Cc5ccccn5)CC4)c4ccccc34)C(=O)NC2=O)c2ccccc21', 'inactive'),
  ('COc1ccc(OC)c(CC(C)N)c1 (stereo unspecified)', 'inactive'),
  ('CCCCCCCCc1ccc(O)cc1', 'active'),
  ('FC(Cl)(Cl)Cl', 'inactive'),
  ('CCOP(=S)(OCC)OC(Cl)C(Cl)(Cl)Cl (stereo unspecified)', 'inactive');

----------
- System under test: Estrogen receptor (Homo sapiens)
- Method description: qHTS assay to identify small molecule agonists of the estrogen receptor alpha (ER-alpha) signaling pathway (AID 743075);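 further: HEK293 GripTite cells with ER-alpha and UAS-driven beta-lactamase reporter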; further: potency means the concentration at half of the fitted maximal effect
- Condition set: HEK293 ER-alpha-UAS-bla, beta-lactamase FRET ratio, 18 h; series mostly up to 70.1 µM
Activity calls are given as the source filed them. Calls come from the whole dose curve.
Parameter: Potency

INSERT INTO measurements (molecule, system_under_test, parameter, recorded_value) VALUES
  ('CCOC(=O)C1(c2ccccc2)CCN(CCC(C#N)(c2ccccc2)c2ccccc2)CC1', 'Estrogen receptor (Homo sapiens)', 'Potency', '53.5 µM [inconclusive] (active)'),
  ('Oc1c(Cl)c(Cl)cc(Cl)c1Cl', 'Estrogen receptor (Homo sapiens)', 'Potency', 'inactive'),
  ('N#CCCC(Br)(C#N)CBr (stereo unspecified)', 'Estrogen receptor (Homo sapiens)', 'Potency', 'inactive'),
  ('O=[N+]([O-])c1ccc2ccc3cccc4ccc1c2c34', 'Estrogen receptor (Homo sapiens)', 'Potency', '2.75 µM [fluorescent] (active)'),
  ('Cc1cc(C)c(C2=C(OC(=O)CC(C)(C)C)C3(CCCC3)OC2=O)c(C)c1', 'Estrogen receptor (Homo sapiens)', 'Potency', 'inactive'),
  ('O=CC(Br)(Br)Br', 'Estrogen receptor (Homo sapiens)', 'Potency', '21.8 µM [inconclusive] (active)'),
  ('ClC(Cl)=C(c1ccc(Cl)cc1)c1ccc(Cl)cc1', 'Estrogen receptor (Homo sapiens)', 'Potency', 'inactive'),
  ('N#C/C=C/C#N', 'Estrogen receptor (Homo sapiens)', 'Potency', '45.7 µM [inconclusive] (active)'),
  ('Cc1cc(C)cc(OP(=O)(Oc2cc(C)cc(C)c2)Oc2cc(C)cc(C)c2)c1', 'Estrogen receptor (Homo sapiens)', 'Potency', 'inactive'),
  ('CC(C)C1CCC(Cc2ccc(Cl)cc2)C1(O)Cn1cncn1 (stereo unspecified)', 'Estrogen receptor (Homo sapiens)', 'Potency', 'inactive'),
  ('CC(C)Oc1cccc(NC(=O)c2ccccc2C(F)(F)F)c1', 'Estrogen receptor (Homo sapiens)', 'Potency', 'inactive'),
  ('O=C(O)c1cc[c]([Hg][Cl])cc1', 'Estrogen receptor (Homo sapiens)', 'Potency', '49 µM [activator] (active)'),
  ('CCCCCCCCCBr', 'Estrogen receptor (Homo sapiens)', 'Potency', 'inactive'),
  ('CC(=O)/C=C/c1ccc2c(c1)OCO2', 'Estrogen receptor (Homo sapiens)', 'Potency', 'inactive'),
  ('CC(C)CC(C)Nc1ccc(Nc2ccccc2)cc1 (stereo unspecified)', 'Estrogen receptor (Homo sapiens)', 'Potency', 'inactive'),
  ('O=S(=O)(c1ccc(Cl)cc1)c1ccc(Cl)cc1', 'Estrogen receptor (Homo sapiens)', 'Potency', 'inactive'),
  ('ClC1=C(Cl)[C@]2(Cl)[C@H]3[C@H]([C@H]4C=C[C@H]3C4)[C@@]1(Cl)C2(Cl)Cl', 'Estrogen receptor (Homo sapiens)', 'Potency', 'inactive'),
  ('O=c1[nH]c2ccccc2n1C1CCN(CCCC(c2ccc(F)cc2)c2ccc(F)cc2)CC1', 'Estrogen receptor (Homo sapiens)', 'Potency', 'inactive'),
  ('COc1ccc(OC)c(CC(C)N)c1 (stereo unspecified)', 'Estrogen receptor (Homo sapiens)', 'Potency', 'inactive'),
  ('O=C(CCCN1CCC2(CC1)C(=O)NCN2c1ccccc1)c1ccc(F)cc1', 'Estrogen receptor (Homo sapiens)', 'Potency', 'inactive'),
  ('O=C1c2ccccc2C(=O)C1C(=O)C(c1ccccc1)c1ccc(Cl)cc1 (stereo unspecified)', 'Estrogen receptor (Homo sapiens)', 'Potency', 'inactive'),
  ('Cc1cc(SCc2sc(-c3ccc(C(F)(F)F)c(F)c3)nc2C)ccc1OCC(=O)O', 'Estrogen receptor (Homo sapiens)', 'Potency', 'inactive'),
  ('Nc1ccc(Cc2ccc(N)c(Cl)c2)cc1Cl', 'Estrogen receptor (Homo sapiens)', 'Potency', 'inactive'),
  ('O=C(CCl)C(Cl)Cl', 'Estrogen receptor (Homo sapiens)', 'Potency', '13.9 µM [inconclusive] (active)'),
  ('CC(C)CC(C)N (stereo unspecified)', 'Estrogen receptor (Homo sapiens)', 'Potency', 'inactive'),
  ('Cc1c(Cl)c(=O)oc2cc(OP(=O)(OCCCl)OCCCl)ccc12', 'Estrogen receptor (Homo sapiens)', 'Potency', 'inactive');
